The following molecules are listed with their measured composite Z-score values.
# experiment: small-molecule microarray binders of probe aXIP, primary screen, biochemical, NeuroSMM set, 635/667 nm fluorescence (AID 1119);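 also: probe is the protein aXip251-270 applied at 1 µg/mL to compound-printed slides; binding of probe to printed compounds measured as 667 nm fluorescence plus signal to noise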
# condition_parameters: higher = more signal, called active from +8 up or from −8 down
Form: value (number only, do not type unit).

Respond only with composite Z-score recorded for C=CCOC(=O)[C@H]1[C@@H]2C(=O)O[C@@H](c3ccccc3)[C@@H](c3ccccc3)N2[C@@H](c2ccc(OCCOC(=O)[C@H]3C[C@H]4C(=O)N[C@@H](CCCC[N+](C)(C)C)C(=O)N4[C@H]3c3cccc(OCCO)c3)cc2)[C@]12C(=O)Nc1ccc(I)cc12
0.197

Output composite Z-score of CCOC(=O)C1=CC[C@@H](c2ccc([N+](=O)[O-])cc2)N(S(=O)(=O)c2ccc(C)cc2)[C@H]1c1ccccc1
0.312

Next:
Tell me measured composite Z-score for CC(C)c1ccc(NN2C(C(O)c3ccco3)C=CC3C(=O)N(c4ccccc4)C(=O)C32)cc1 (stereo not drawn) please.
0.204

Provide one value: measured composite Z-score of C#CCNC(=O)[C@H](Cc1ccccc1)NC(=O)[C@@H](N=[N+]=[N-])C(C)C
-0.197

Answer with reported composite Z-score of O=C1O[C@@H](c2ccccc2)[C@@H](c2ccccc2)N2[C@@H](c3ccc(O)cc3)[C@]3(C(=O)Nc4ccc(C#CCCO)cc43)[C@@H](C(=O)Nc3nc4ccccc4s3)[C@H]12
-0.0011

# return recorded composite Z-score for entry NC(=O)N1C(=O)C2C(C1=O)C1C=C(c3ccc(CO)cc3)C2C(C2CC2)N1Cc1sc2ccccc2c1Cl (stereo not drawn)
0.742

Find the measured composite Z-score of CC(C)(C)OC(=O)CC[C@]1(C(=O)N2CCOCC2)N=C(c2ccc(OCCCO)cc2)O[C@H]1c1ccccc1 and report it.
-0.131

Give me measured composite Z-score, please, for this molecule: CC(=O)n1cc(C(O)C2C=CC3C(=O)N(Cc4ccccc4)C(=O)C3N2n2cnnc2)c2ccccc21 (stereo not drawn)
-0.213

State, in one line, measured composite Z-score of C=C(/C(=C/C[C@@H](OC(=O)c1ccncc1)c1ccccc1OCCO)c1cc(C(=O)OC)ccc1OC)C(C)C
-0.0951

Dear colleague, please send me the reported composite Z-score for CC(C)CCC[C@@H](C)[C@H]1CC[C@@]2(C)C3=C(CC[C@]12C)[C@@]1(C)CC[C@H](OC(=O)c2ccc(Br)cc2)C(C)(C)C1CC3 (stereo partly drawn) when you can.
-0.174

State, in one line, measured composite Z-score of C=CCNC(=O)[C@@H]1[C@H]2C(=O)O[C@H](c3ccccc3)[C@H](c3ccccc3)N2[C@H](c2ccc(OCCO)cc2)[C@@]12C(=O)N(C(=O)OCCOC)c1ccc(C#CC3=CCCCC3)cc12
0.223

Supply reported composite Z-score belonging to this molecule: COCCOC(=O)N1C(=O)[C@@]2(c3cc(C#CCNC(N)=O)ccc31)[C@H](C(=O)N1CCCCCCC1)[C@H]1C(=O)O[C@H](c3ccccc3)[C@H](c3ccccc3)N1[C@@H]2c1ccc(O)cc1
0.559

State, in one line, measured composite Z-score of COCCOC(=O)N1C(=O)[C@@]2(c3cc(C#CC4(O)CCCCCC4)ccc31)[C@H](C(N)=O)[C@H]1C(=O)O[C@H](c3ccccc3)[C@H](c3ccccc3)N1[C@@H]2c1ccccc1OCCO
-0.526

# return recorded composite Z-score for entry CC(C)C(O)C1C=CC2C(=O)N(C)C(=O)C2N1N(c1ccccc1)c1ccccc1 (stereo not drawn)
0.491

For the molecule NC(=O)N1C(=O)C2C(C1=O)C1C=C(CCCO)C2C(c2cccs2)N1Cc1cc2c(cc1Br)OCO2 (stereo not drawn) , give its reported composite Z-score.
-0.483

Tell me measured composite Z-score for COc1cc2c(cc1O)C(C)N(Cc1cc3c(cc1Br)OCO3)CC2 (stereo not drawn) please.
2.1

Give the reported composite Z-score for this molecule. O=C1NC(=O)C2C1C=CC(C(O)c1cc(C(F)(F)F)cc(C(F)(F)F)c1)N2Nc1ccc(Cl)cc1Cl (stereo not drawn)
0.809

Supply composite Z-score value. Item: COc1ccc(CCNC(=O)[C@@]2(Sc3ccc(C)cc3)CC(=O)N(Cc3cc(C(F)(F)F)cc(C(F)(F)F)c3)[C@@H]2c2ccc(CO)cc2I)cc1
1.4

* * *

# experiment: PSAC antagonists in infected red cells, primary screen, cell-based, P. falciparum Indochina, OD700, 1 h (AID 1154)
# condition_parameters: P. falciparum Indochina infected RBC osmotic lysis, higher = more signal, called active from +8 up or from −8 down
quantity: z-score
Reply with the value as a number alone.

Supply recorded z-score for COC(=O)[C@@]1(Cc2ccc(F)cc2)[C@H]2c3cc(C(=O)N4CCCC4)n(CCc4c[nH]c5ccc(OC)cc45)c3C[C@H]2CN1C(=O)c1ccccc1 here.
4.03

Determine from records and report z-score for CO[C@H]1O[C@H](CO)[C@@H](OC(=O)Nc2ccccc2-c2ccccc2)[C@H](OC(=O)Nc2ccc3c(c2)OCO3)[C@@H]1OC(=O)Nc1ccc2c(c1)OCO2
15.3

Item [N-]=[N+]=NCc1ccccc1[C@H]1OC(c2ccc(OCCCO)cc2)=N[C@@]1(CCS(=O)(=O)c1ccccc1)C(N)=O : provide z-score
24.1

For C=C(C(=O)CC[C@H](OC(C)=O)c1cccc(OCCO)c1)C(C)C , write its z-score.
2.12

More entries:
Note z-score for the molecule shown: [N-]=[N+]=NCc1ccccc1C[C@@]1(C(=O)NCCN2CCOCC2)N=C(c2ccc(OCCCO)cc2)O[C@@H]1c1ccccc1N=[N+]=[N-]
31.3

Tell me measured z-score for C=C(/C=C/CNS(=O)(=O)c1ccc(C)cc1)[C@H](O)[C@H]1CCCN1S(=O)(=O)c1ccccc1[N+](=O)[O-] please.
11.5

Report measured z-score; entry is C=CCC(OC(C)=O)[C@@H]1[C@@H](N(Cc2cc3ccccc3o2)C(=O)c2ccc(C)cc2)c2cc(OCCCO)ccc2N1C(=O)Cc1ccc2ccccc2c1 (some centres undefined)
1.49

Please supply the value of reported z-score for the item COC(=O)[C@@]1(Cc2ccc(OC)cc2)[C@H]2c3cc(C(=O)N4CCCC4)n(CCc4cc5ccccc5[nH]4)c3C[C@H]2CN1C(=O)c1ccccc1
4.17

Return value of z-score for input C=C(CCCC)C(=O)CC[C@@H](OC(=O)c1cccnc1)c1ccccc1OCCO , no commentary.
22.3

Specify measured z-score for [N-]=[N+]=NCc1ccccc1C[C@]1(C(=O)NCC(O)CO)N=C(c2ccc(OCCCO)cc2)O[C@H]1c1ccccc1CN=[N+]=[N-] (some centres undefined) .
19.3

Supply z-score value. Item: O=C1c2ccccc2[C@](Cc2ccccc2I)(C(=O)NCc2ccccc2)[C@H](c2ccc(CO)cc2)N1C1CCCCC1
2.39

Provide measured z-score value, entry: COCCOC(=O)N1C(=O)[C@@]2(c3cc(C#CC4=CCCCC4)ccc31)[C@H](c1ccccc1OCCO)N1[C@H](c3ccccc3)[C@H](c3ccccc3)OC(=O)[C@H]1[C@@H]2C(=O)N1CCc2cc(OC)c(OC)cc2C1
2.7

Identify z-score associated with the molecule CC=CC(O)C1C=CC2C(=O)N(c3ccccc3)C(=O)C2N1Nc1ccc([N+](=O)[O-])cc1 (centres undefined)
8.61

Check the records and state z-score for COc1ccc([Si](C)(C)[C@H]2[C@H](CCn3cc([C@H](O)c4ccccc4)nn3)O[C@@]3(C(=O)N(Cc4cccc(N5C(=O)c6cccc7cccc5c67)c4)c4ccccc43)[C@@H]2C)cc1
1.23

* * *

The following compounds are listed with their measured composite z-score values.
# Tested on: Sonic hedgehog protein (Shh)
# experiment: small-molecule binders of Shh protein, primary screen, biochemical, small-molecule microarray, 635/667 nm fluorescence (AID 1151);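 also: Shh protein binding to compounds spotted on small-molecule microarray slides; score combines spot fluorescence intensity with signal-to-noise across triplicate slides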
# condition_parameters: small-molecule microarray binding, 635 nm fluorescence; higher = more signal
Give the figure by itself; no unit, no explanation.

Determine from records and report composite z-score for CN(C)CCCCNC(=O)[C@H]1C[C@H]2C(=O)N[C@@H](CCCCN(C)C)C(=O)N2[C@H]1c1cccc(OCCO)c1
2.08

Supply recorded composite z-score for C=C[C@@H](C)[C@H](OC(=O)Nc1ccc(SC)cc1)c1ccc(OCCO)cc1 here.
0.182

Check the records and state composite z-score for Cc1ccc(S[C@]2(C(=O)NC(C)C)CC(=O)N(C3Cc4ccccc4C3)[C@@H]2c2ccc(CO)cc2I)cc1
-0.274

Input C=CCC(OC(C)=O)[C@@H]1[C@@H](N(Cc2ccc(-c3ccccc3)cc2)C(=O)c2cccc3ccccc23)c2cc(OCCCO)ccc2N1C(=O)Cc1ccc2ccccc2c1 (some centres undefined) , output reported composite z-score.
0.39

Check the records and state composite z-score for O=C1NC(=O)C2C1C=CC(C(O)c1c(F)cccc1Cl)N2Nc1ccccn1 (centres undefined)
-0.0146

Query composite z-score for COc1ccc([Si](C)(C)[C@H]2[C@H](CCn3cc([C@H](O)c4ccccc4)nn3)O[C@@]3(C(=O)N(Cc4cccc(N5C(=O)c6cccc7cccc5c67)c4)c4ccccc43)[C@@H]2C)cc1
-0.0819

Give composite z-score for CC(C)N1C(=O)[C@@]2(c3ccc([N+](=O)[O-])cc3)CC(=O)N(C3CCCCC3)[C@@H]2c2ccc(CO)cc21
1.02

Note composite z-score for the compound shown: CC(CO)N1C(=O)[C@@H]2C3C(=O)OCCC/C=C\[C@H]3OC23C=CCN(Cn2nnc4ccccc42)C(=O)[C@@H]13 (some centres undefined)
0.276

Retrieve composite z-score measured for CO[C@H]1O[C@H](CO)[C@@H](OC(=O)Nc2ccc(Oc3ccccc3)cc2)[C@H](OC(=O)Nc2ccccc2-c2ccccc2)[C@@H]1OC(=O)Nc1ccccc1-c1ccccc1 and print it.
0.74

Could you please provide reported composite z-score for COC(=O)[C@@]1(Cc2ccccc2)[C@H]2c3cc(C(=O)N4CCCC4)n(Cc4ccsc4Br)c3C[C@H]2CN1C(=O)c1ccccc1 ? Thanks!
-1.01

Next:
Answer with reported composite z-score of C=C(C(=O)CC[C@H](OC(=O)c1cccnc1)c1ccc(CO)o1)C(C)C
1.79

Report measured composite z-score; entry is C=CC[C@]12N=C(c3ccc(OCCCO)cc3)O[C@H]1c1ccccc1N(C)C2=O
1.28

Recall and state the measured composite z-score for O=c1cccc(-c2ccc(C(F)(F)F)cc2)o1 .
-0.559

Indicate the recorded composite z-score value for this compound: COc1ccccc1CN1C(=O)c2ccccc2[C@](Cc2ccccc2I)(C(=O)NC(C)C)[C@@H]1c1ccc(CO)cc1
1.78
